The reported measurements were obtained from patent US20220202799A1.

assay: Plasma concentrations and TK parameters, 72-hour continuous intravenous infusion; type: in vivo, Sprague-Dawley rats; conditions: female, Sprague-Dawley, rat, plasma, iv, 10 mg/kg/day, female Sprague-Dawley rats; 72-hour intravenous infusion at 10 mg/kg/day; time 24 h; read-out: Plasma concentration, individual animal
experimental-readout: concentration at 24 h (ng/mL)
Respond numerically; units are ng/mL and should not be typed.

Quick one: concentration at 24 h for O=C(O)c1cc(-c2ccc(C3CCNCC3)cc2)c2ccc(-c3ccc(C(F)(F)F)cc3)cc2c1 ?
595

###

test: Plasma concentrations during 24-hour continuous intravenous infusion; type: in vivo, Sprague-Dawley rats; conditions: male, Sprague-Dawley, rat, plasma, iv, 10 mg/kg, male Sprague-Dawley rats; 24-hour intravenous infusion at 10 mg/kg; time 1 h; read-out: Plasma concentration, individual animal
experimental-readout: concentration at 1 h
Field note: include the unit after the figure.

Which concentration at 1 h is listed for O=C(O)c1cc(-c2ccc(C3CCNCC3)cc2)c2ccc(-c3ccc(C(F)(F)F)cc3)cc2c1 ?
216 ng/mL
